Measured normalized growth, listed per entry.
Assay: chemical genetic growth profiling, strain panel (AID 1159580);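 note: tested at 20 µM; growth read once vehicle control cultures reached saturation at 30 °C; 1 = growth at the plate median or of vehicle wells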
Settings: S. cerevisiae deletion strains, growth OD, locus YDL005C, strain med2, stronger effect = lower value
Out of some 5,500 compounds screened, about 2,000 (36%) were called active. Inconclusive results (about 18%) are left out. This is one part of the list.

Need normalized growth, item CC1(C)OC(=O)NC1=O
0.997 (inactive)

Another: CCC(=O)O[C@H]1[C@H](O[C@@H]2[C@@H](C)[C@H](O[C@H]3C[C@@](C)(OC)[C@@H](O)[C@H](C)O3)[C@@H](C)C(=O)O[C@H](CC)[C@@](C)(O)[C@H](O)[C@@H](C)C(=O)[C@H](C)C[C@@]2(C)O)O[C@H](C)C[C@@H]1N(C)C
0.984 (inactive)

Another: COC1=C(OC)C(=O)C(C/C=C(\C)CC/C=C(\C)CC/C=C(\C)CC/C=C(/C)CC/C=C(\C)CC/C=C(\C)CC/C=C(\C)CC/C=C(\C)CC/C=C(\C)CCC=C(C)C)=C(C)C1=O
0.977 (inactive)

Another: c1ccc(N=Nc2ccccc2)cc1
0.977 (inactive)

* * *

Measured normalized growth, listed per entry.
Test: chemical genetic growth profiling, strain panel (AID 1159580)
Details: S. cerevisiae deletion strains, growth OD, locus YAL040C, strain CLN3, stronger effect = lower value
In all, about 5,500 compounds went through this assay and about 2,000 (36%) were called active. Roughly 18% stayed inconclusive and do not appear here. The list shows a part of the results.
Answer field: number only, no words.

Need normalized growth, item Ic1ccc(N2CCN(Cc3c[nH]c4ncccc34)CC2)cc1
1

Another: Nc1nc2ccc(OC(F)(F)F)cc2s1
0.985

Another: CCN(CC)CC#CCOC(=O)C(O)(c1ccccc1)C1CCCCC1 (stereo not given)
1

Another: C[C@]12C[C@H](O)[C@H]3[C@@H](CCC4=CC(=O)CC[C@@]43C)[C@@H]1CC[C@@H]2C(=O)CO
1.05

Another: OC1(c2ccc(Cl)cc2)CCN(Cc2c[nH]c3ccccc23)CC1
1

* * *

Test: chemical genetic growth profiling, strain panel (AID 1159580)
Conditions: S. cerevisiae deletion strains, growth OD, locus YLR262C, strain YPT6
Among all 5,500 compounds or so, about 2,000 (36%) were called active. Roughly 18% stayed inconclusive and do not appear here. Cut-off read from the data, not from the text of the source: active = normalized growth mostly below about 0.91 (no sharp cut-off); inconclusive = no clear call, values can overlap the other calls; inactive = mostly above about 0.92. This is one part of the list.
Parameter call: string, one of active, inactive

Reference set (3 entries):
compound: C[C@H]1OC(n2cc(F)c(=O)[nH]c2=O)C(O)[C@@H]1O (some centres undefined)
class: inactive

compound: NCCSSCCN
class: inactive

compound: CCN(CC)CCCC(C)Nc1c2ccc(Cl)cc2nc2ccc(OC)cc12 (centres undefined)
class: inactive

Per the assay record, what outcome was assigned to COc1ccc(OC)c(S(=O)(=O)Oc2ccc(C#N)cc2)c1 ?
inactive

Another: Ic1ccc(I)s1
inactive

* * *

Measured normalized growth, listed per entry.
Assay: chemical genetic growth profiling, strain panel (AID 1159580);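 note: tested at 20 µM; growth read once vehicle control cultures reached saturation at 30 °C; 1 = growth at the plate median or of vehicle wells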
Settings: S. cerevisiae deletion strains, growth OD, locus YGL248W, strain PDE1, stronger effect = lower value
About 2,000 (36%) of roughly 5,500 compounds were called active. About 18% were inconclusive and are not listed. Some of the results follow.

Need normalized growth, item CC1CC2C3CCC4=CC(=O)C=C[C@]4(C)[C@@]3(F)[C@@H](O)C[C@]2(C)[C@@]1(O)C(=O)CO (stereo partly drawn)
0.98 (inactive)

Another: CC(C)OC(=O)C(C)(C)Oc1ccc(C(=O)c2ccc(Cl)cc2)cc1
0.969 (inactive)

Another: COc1cc2c(cc1OC)C1C(=O)c3c(O)cc4c(c3OC1CO2)C=CC(C)(C)O4 (stereo not drawn)
1.01 (inactive)

Another: CC(C)CC(NC(=O)C(Cc1ccccc1)NC(=O)CNC(=O)CNC(=O)C(N)Cc1ccc(O)cc1)C(=O)O (stereo not drawn)
1 (inactive)

Another: COc1ccc2cc([C@H](C)CO)ccc2c1
0.98 (inactive)

Another: COP(=O)(OC)OC=C(Cl)Cl
0.982 (inactive)

Another: CCN(CC)CCCC(C)Nc1ccnc2cc(Cl)ccc12 (stereo not drawn)
1.04 (inactive)

Another: CC(=O)[C@H]1CCC2C3CCC4=CC(=O)CC[C@]4(C)C3CC[C@@]21C (stereo partly drawn)
0.968 (inactive)

* * *

Test: chemical genetic growth profiling, strain panel (AID 1159580);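 note: tested at 20 µM; growth read once vehicle control cultures reached saturation at 30 °C; 1 = growth at the plate median or of vehicle wells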
Settings: S. cerevisiae deletion strains, growth OD, locus YKL085W, strain MDH1 (second series)
The campaign covered roughly 5,500 compounds. About 2,000 (36%) were called active. Another 18% or so got no clear call; they are omitted. No stated cut-off is given here; in the data, active means normalized growth mostly below about 0.91 (no sharp cut-off); inconclusive means no clear call, values can overlap the other calls; inactive means mostly above about 0.92. This is one part of the list.
Parameter call: string, one of label 1 (active), label 0 (inactive)

Reference set (8 entries):
compound: Cc1cc(O)c(C)c(O)c1C(=O)O
class: label 0
--
compound: COc1ccc2c(c1OC)C(=O)O[C@H]2[C@H]1c2cc3c(cc2CCN1C)OCO3
class: label 0
--
compound: COc1cc2c(cc1OC)C(=O)OC2
class: label 0
--
compound: COc1ccc2c(c1OC)C(=O)O[C@@H]2[C@H]1c2cc3c(cc2CCN1C)OCO3
class: label 0
--
compound: C[C@]12CC(=O)C3C(CC[C@@H]4C[C@H](O)CC[C@]34C)C1CC[C@]2(O)C(=O)CO (stereo partly specified)
class: label 0
--
compound: CN1CCC(=C2c3ccccc3CC(=O)c3sccc32)CC1
class: label 0
--
compound: Cc1cc(O)c(C=O)c(O)c1C(=O)O
class: label 0
--
compound: CN1CCCN=C1COC(=O)C(O)(c1ccccc1)C1CCCCC1 (stereo unspecified)
class: label 0

Per the assay record, what outcome was assigned to CC(=O)[C@H]1CCC2C3CCC4=CC(=O)CC[C@]4(C)C3CC[C@@]21C (stereo partly specified) ?
label 1

Another: CCS(=O)CCSP(=O)(OC)OC (stereo unspecified)
label 0

Another: CN(C)C(=S)SSC(=S)N(C)C
label 1

Another: CC1=C(/C=C/C(C)=C/C=C/C(C)=C/C=C/C=C(C)/C=C/C=C(C)/C=C/C2=C(C)C(=O)C(O)CC2(C)C)C(C)(C)CC(O)C1=O (stereo unspecified)
label 0

Another: CC(=O)N[C@@H](CC(C)C)C(=O)O
label 0

Another: CCCCCCCCCCCCCCCC(=O)OC/C=C(C)/C=C/C=C(C)/C=C/C1=C(C)CCCC1(C)C
label 0

Another: COC1=CC(=O)C[C@@H](C)[C@]12Oc1c(Cl)c(OC)cc(OC)c1C2=O
label 0

Another: CC(C[N+](C)(C)C)OC(N)=O (stereo unspecified)
label 0

Another: CCC(=O)O[C@H]1[C@H](O[C@@H]2[C@@H](C)[C@H](O[C@H]3C[C@@](C)(OC)[C@@H](O)[C@H](C)O3)[C@@H](C)C(=O)O[C@H](CC)[C@@](C)(O)[C@H](O)[C@@H](C)C(=O)[C@H](C)C[C@@]2(C)O)O[C@H](C)C[C@@H]1N(C)C
label 0

Another: COc1cc2c(cc1OC)Cc1cc(OC)c(OC)cc1Cc1cc(OC)c(OC)cc1C2
label 0

Another: CCOC(=O)c1c(C)cc(O)c(C=O)c1O
label 1

Another: CNCCc1ccccn1
label 0

* * *

Test: chemical genetic growth profiling, strain panel (AID 1159580);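 note: tested at 20 µM; growth read once vehicle control cultures reached saturation at 30 °C; 1 = growth at the plate median or of vehicle wells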
Details: S. cerevisiae deletion strains, growth OD, locus YJR066W, strain TOR1, stronger effect = lower value
Hit rate of the full screen: of about 5,500 compounds, about 2,000 (36%) were called active. Roughly 18% stayed inconclusive and do not appear here. This is one part of the list.
quantityKind: normalized growth

compound: COc1cc(O)c(C(=O)/C=C/c2ccc(OC)c(O)c2)c(OC)c1
normalized growth: 0.897 (inactive)

Need normalized growth, item CC(C(=O)O)c1cccc(C(=O)c2ccccc2)c1 (stereo unspecified)
0.965 (inactive)

Another: O=C1C=CC(=C(c2ccc(O)cc2)c2ccc(O)cc2)C=C1
0.979 (inactive)

Another: O=C1C(=O)N(CN2CCc3c([nH]c4ccccc34)C2C(F)(F)F)c2ccc(F)cc21 (stereo unspecified)
0.784 (inactive)

Another: C[N+](C)(C)CCOC(N)=O
0.999 (inactive)

Another: CCN(CC)CCCC(C)Nc1c2ccc(Cl)cc2nc2ccc(OC)cc12 (stereo unspecified)
0.558 (active)

Another: Cc1ccc(Sc2c(Sc3ccc(C)cc3)c(=O)c2=O)cc1
0.129 (active)

Another: O=C(CSc1nnnn1-c1ccccc1)c1ccccc1
0.486 (inactive)

Another: ClC1=C(Cl)C2(Cl)C3C(Cl)C=CC3C1(Cl)C2(Cl)Cl (stereo unspecified)
0.961 (inactive)

Another: COC(=O)C(OC(C)=O)[C@H]1C(C)(C)C(OC(C)=O)[C@@H]2CC3=C4CC(=O)O[C@@H](c5ccoc5)[C@]4(C)CCC3[C@@]1(C)C2=O (stereo partly specified)
0.917 (inactive)

Another: NC(=O)c1ccc[n+]([C@@H]2O[C@H](COP(=O)([O-])OP(=O)(O)OC[C@H]3O[C@@H](n4cnc5c(N)ncnc54)[C@H](O)[C@@H]3O)[C@@H](O)[C@H]2O)c1
0.943 (inactive)

Another: COC1=CC(=O)C[C@@H](C)[C@]12Oc1c(Cl)c(OC)cc(OC)c1C2=O
0.969 (inactive)

Another: CCOC(=O)C(C)(C)Oc1ccc(Cl)cc1
0.943 (inactive)

Another: CC(=O)OCC[N+](C)(C)C
1.03 (inactive)

Another: O=c1c(Sc2ccc(Cl)cc2)c(Sc2ccc(Cl)cc2)c1=O
0.124 (active)

Another: ClC1=C(Cl)C2(Cl)C3C4CC(C5OC45)C3C1(Cl)C2(Cl)Cl (stereo unspecified)
0.962 (inactive)

Another: COc1cc2c(cc1OC)[C@@H]1C(=O)c3ccc4c(c3O[C@@H]1CO2)C=CC(C)(C)O4
0.915 (inactive)

Another: O=S(=O)(Nc1cccc2nsnc12)c1cc(Cl)sc1Cl
0.953 (inactive)

Another: O=S(=O)(Nc1cccc(CCc2ccccn2)c1)c1cc(Cl)c(Cl)cc1Cl
1.08 (inactive)

Another: C=Cc1c2[nH]c(c1C)C=c1[nH]c(c(C)c1C=C)=CC1N=C(C=c3[nH]c(c(C)c3CCC(=O)O)=C2)C(CCC(=O)O)=C1C (stereo unspecified)
0.995 (inactive)

Reference source for all entries: PubChem BioAssay AID1159580
